Test: Pharmacokinetic experiment, single intragastric administration, plasma by HPLC-UV
Assay type: in vivo, SD rats
Conditions: Sprague-Dawley, rat, plasma, po, 150 mg/kg, PIP or ILE 150 mg kg^−1 oral together with CUR 200 mg kg^−1; read-out: Tmax (converted)
measured.endpoint: Tmax (h)
Hi! Could you send only the number? It should be in h, unit omitted.

Please indicate Tmax recorded for O=C(/C=C/c1ccc2c(c1)OCO2)N1CCCCC1 [ILE, Ilepcimide, reference compound]
3.07

Report Tmax for O=C(/C=C/C=C/c1ccc2c(c1)OCO2)N1CCCCC1 [PIP, Piperine, reference compound]
1.13

###

Experiment: Pharmacokinetic experiment, single intragastric administration, plasma by HPLC-UV
Format: in vivo, SD rats
Details: SD (Sprague-Dawley), rat, plasma, po, plasma, Group C (CUR 200 mg kg^−1 and ILE 150 mg kg^−1 oral), 210 min; read-out: Mean concentrations ±sd, DHC
measured.endpoint: concentration at 210 min
Be sure to follow the number with its unit.

Fill in reported concentration at 210 min for this entry: COc1cc(/C=C/C(=O)CC(=O)CCc2ccc(O)c(OC)c2)ccc1O [DHC, Dihydrocurcumin]
2600 ng/mL
